Listing of entries alongside the reported CLint.
test system: Liver microsome; assay: Metabolic stability in human liver microsomes measured per mg of protein; format: ADME

{"Given Smiles": "O=C(Nc1ccc(C(F)(F)F)cc1)N1CCOC2(CCN(C(=O)c3cccc(Cl)c3)CC2)C1", "Measurement Target": "Liver microsome", "Unit Abbrev": "µL/min/mg", "CLint": 100}
{"Given Smiles": "CC(C)(C)C(=O)N1CCC2(CC1)CN(C(=O)Nc1ccc(C(F)(F)F)cc1)CCO2", "Measurement Target": "Liver microsome", "Unit Abbrev": "µL/min/mg", "CLint": 98}
{"Given Smiles": "O=C(Nc1ccc(OC(F)(F)F)cc1)N1CCOC2(CCN(C(=O)C3CCCCC3)CC2)C1", "Measurement Target": "Liver microsome", "Unit Abbrev": "µL/min/mg", "CLint": 357}
{"Given Smiles": "O=C(Nc1ccc(C(F)(F)F)cc1)N1CCOC2(CCN(C(=O)c3ccc(Cl)cc3)CC2)C1", "Measurement Target": "Liver microsome", "Unit Abbrev": "µL/min/mg", "CLint": 21}
{"Given Smiles": "Cc1cc(C(=O)N2CCC3(CC2)CN(C(=O)Nc2ccc(OC(F)(F)F)cc2)CCO3)no1", "Measurement Target": "Liver microsome", "Unit Abbrev": "µL/min/mg", "CLint": 47}
{"Given Smiles": "N#Cc1ccc(C(=O)N2CCC3(CC2)CN(C(=O)Nc2ccc(C(F)(F)F)cc2)CCO3)cc1", "Measurement Target": "Liver microsome", "Unit Abbrev": "µL/min/mg", "CLint": 3}
{"Given Smiles": "O=C(Nc1ccc(OC(F)(F)F)cc1)N1CCOC2(CCN(C(=O)C3(c4ccccc4)CC3)CC2)C1", "Measurement Target": "Liver microsome", "Unit Abbrev": "µL/min/mg", "CLint": 228}
{"Given Smiles": "Cc1cnc(C(=O)N2CCC3(CC2)CN(C(=O)Nc2ccc(OC(F)(F)F)cc2)CCO3)cn1", "Measurement Target": "Liver microsome", "Unit Abbrev": "µL/min/mg", "CLint": 12}
{"Given Smiles": "CC(=O)Nc1ccccc1C(=O)N1CCC2(CC1)CN(C(=O)Nc1ccc(C(F)(F)F)cc1)CCO2", "Measurement Target": "Liver microsome", "Unit Abbrev": "µL/min/mg", "CLint": 39}
{"Given Smiles": "COc1ccccc1CC(=O)N1CCC2(CC1)CN(C(=O)Nc1ccc(OC(F)(F)F)cc1)CCO2", "Measurement Target": "Liver microsome", "Unit Abbrev": "µL/min/mg", "CLint": 461}

---

target: Bifunctional epoxide hydrolase 2 (Homo sapiens); assay: Inhibition of human recombinant sEH expressed in baculovirus infected insect Sf9 cells using cyano(6-methoxynaphthalen-2-yl)methyl trans-[(3-phenyloxiran-2-yl)methyl] carbonate as substrate preincubated for 30 mins followed by substrate addition measured after 20 to 45 mins by fluorescence assay
Sequence (P34913 whole entry): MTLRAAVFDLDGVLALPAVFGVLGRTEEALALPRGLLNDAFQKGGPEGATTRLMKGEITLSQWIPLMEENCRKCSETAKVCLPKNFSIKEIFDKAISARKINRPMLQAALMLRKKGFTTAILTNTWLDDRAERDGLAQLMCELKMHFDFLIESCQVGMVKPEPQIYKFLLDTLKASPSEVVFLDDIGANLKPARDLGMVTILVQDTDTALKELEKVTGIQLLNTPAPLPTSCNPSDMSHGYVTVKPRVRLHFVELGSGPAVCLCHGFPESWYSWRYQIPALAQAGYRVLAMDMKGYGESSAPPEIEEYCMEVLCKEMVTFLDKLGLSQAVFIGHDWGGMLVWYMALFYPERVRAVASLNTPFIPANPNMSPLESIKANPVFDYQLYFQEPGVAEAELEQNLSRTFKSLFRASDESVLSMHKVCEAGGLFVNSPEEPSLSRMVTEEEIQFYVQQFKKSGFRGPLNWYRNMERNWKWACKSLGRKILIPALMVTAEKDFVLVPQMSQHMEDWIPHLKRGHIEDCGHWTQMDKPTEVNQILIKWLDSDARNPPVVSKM
Listing of entries alongside the reported IC50.

{"Given Smiles": "O=C(Nc1ccc(C(F)(F)F)cc1)N1CCOC2(CCN(C(=O)c3ccc(Cl)cc3)CC2)C1", "IC50": "1 nM"}
{"Given Smiles": "CC(=O)Nc1ccccc1C(=O)N1CCC2(CC1)CN(C(=O)Nc1ccc(C(F)(F)F)cc1)CCO2", "IC50": "0.8 nM"}
{"Given Smiles": "O=C(Nc1ccc(OC(F)(F)F)cc1)N1CCOC2(CCN(C(=O)c3c[nH]nc3C3CC3)CC2)C1", "IC50": "1.1 nM"}

Data credit: ChEMBL document CHEMBL3102795
